- Test system: Plasmodium falciparum
- assay_explanation: Schizontocidal activity against Plasmodium falciparum K1 infected in human RBC after 72 hrs by Malstat reagent-based spectrophotometric analysis
- Assay type: functional
- setup_conditions: K1, 72 h
measure_name: MIC50 (µM)

[[record]]
compound = "CN(O)C(=O)CC(CP(=O)(O)O)c1ccccc1 (configuration not stated)"
measure_name = "MIC50"
unit_name = "µM"
measurement_qualifier = ">"
test_result = 64

[[record]]
compound = "CN(O)C(=O)CC(CCCc1ccccc1)CP(=O)(O)O (configuration not stated)"
measure_name = "MIC50"
unit_name = "µM"
measurement_qualifier = "="
test_result = 0.43

[[record]]
compound = "COc1ccc(C(CC(=O)N(C)O)CP(=O)(O)O)cc1 (configuration not stated)"
measure_name = "MIC50"
unit_name = "µM"
measurement_qualifier = ">"
test_result = 64

[[record]]
compound = "CN(O)C(=O)CCCP(=O)(O)O"
measure_name = "MIC50"
unit_name = "µM"
measurement_qualifier = "="
test_result = 0.26

[[record]]
compound = "CN(O)C(=O)CC(CCc1ccccc1)CP(=O)(O)O (configuration not stated)"
measure_name = "MIC50"
unit_name = "µM"
measurement_qualifier = "="
test_result = 35.4

[[record]]
compound = "CC(CC(=O)N(C)O)CP(=O)(O)O (configuration not stated)"
measure_name = "MIC50"
unit_name = "µM"
measurement_qualifier = "="
test_result = 0.74

[[record]]
compound = "CN(O)C(=O)CC(Cc1ccccc1)CP(=O)(O)O (configuration not stated)"
measure_name = "MIC50"
unit_name = "µM"
measurement_qualifier = "≥"
test_result = 56.8


====

- target: 1-deoxy-D-xylulose 5-phosphate reductoisomerase (Mycobacterium tuberculosis)
- assay_explanation: Inhibition of recombinant Mycobacterium tuberculosis Dxr expressed in Escherichia coli BL21 CodonPlus (DE3)-RIL cells using DOXP as substrate assessed as NADPH oxidation at 100 uM by spectrophotometric analysis
Calls of active or inactive are those of the source. The calls are words filed in the database; no cut-off is given here.
measure_name: inhibition

[[record]]
molecule = "COc1ccc(C(CC(=O)N(C)O)CP(=O)(O)O)cc1 (stereo not given)"
test_result = "inactive"

[[record]]
molecule = "CN(O)C(=O)CC(CP(=O)(O)O)c1ccc(Cl)c(Cl)c1 (stereo not given)"
test_result = "inactive"

[[record]]
molecule = "CN(O)C(=O)CC(CP(=O)(O)O)c1ccccc1 (stereo not given)"
test_result = "inactive"

[[record]]
molecule = "CN(O)C(=O)CC(CP(=O)(O)O)c1ccc(Cl)cc1 (stereo not given)"
test_result = "inactive"

[[record]]
molecule = "Cc1ccc(C(CC(=O)N(C)O)CP(=O)(O)O)cc1 (stereo not given)"
test_result = "inactive"


====

- target: 1-deoxy-D-xylulose 5-phosphate reductoisomerase (Mycobacterium tuberculosis, UniProt P9WNS1)
- Sequence (P9WNS1 whole entry): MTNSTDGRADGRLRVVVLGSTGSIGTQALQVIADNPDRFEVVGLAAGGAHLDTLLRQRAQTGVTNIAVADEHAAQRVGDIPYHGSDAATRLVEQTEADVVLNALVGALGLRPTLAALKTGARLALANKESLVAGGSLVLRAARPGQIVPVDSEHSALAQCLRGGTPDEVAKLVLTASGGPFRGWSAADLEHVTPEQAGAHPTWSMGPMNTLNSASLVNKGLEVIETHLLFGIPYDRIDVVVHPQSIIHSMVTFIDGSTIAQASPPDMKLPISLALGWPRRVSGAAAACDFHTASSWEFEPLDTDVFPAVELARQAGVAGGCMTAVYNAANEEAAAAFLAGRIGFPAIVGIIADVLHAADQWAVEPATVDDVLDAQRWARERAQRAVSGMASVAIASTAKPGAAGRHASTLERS
- assay_explanation: Inhibition of recombinant Mycobacterium tuberculosis Dxr expressed in Escherichia coli BL21 CodonPlus (DE3)-RIL cells using DOXP as substrate assessed as NADPH oxidation by spectrophotometric analysis
pIC50: −log10 of the molar value.
Threshold check on pIC50: at or above 6 gives class 1, strictly below gives class 0.

[[record]]
compound = "CC(CC(=O)N(C)O)CP(=O)(O)O (stereo not given)"
assigned_label = "class 1"

[[record]]
compound = "CN(O)C(=O)CC(CCc1ccccc1)CP(=O)(O)O (stereo not given)"
assigned_label = "class 0"

[[record]]
compound = "CN(O)C(=O)CC(CCCCc1ccccc1)CP(=O)(O)O (stereo not given)"
assigned_label = "class 0"

[[record]]
compound = "CN(O)C(=O)CCCP(=O)(O)O"
assigned_label = "class 1"


====

- target: 1-deoxy-D-xylulose 5-phosphate reductoisomerase (Escherichia coli) (UniProt W8T2T2)
- Sequence (W8T2T2 as listed by the source): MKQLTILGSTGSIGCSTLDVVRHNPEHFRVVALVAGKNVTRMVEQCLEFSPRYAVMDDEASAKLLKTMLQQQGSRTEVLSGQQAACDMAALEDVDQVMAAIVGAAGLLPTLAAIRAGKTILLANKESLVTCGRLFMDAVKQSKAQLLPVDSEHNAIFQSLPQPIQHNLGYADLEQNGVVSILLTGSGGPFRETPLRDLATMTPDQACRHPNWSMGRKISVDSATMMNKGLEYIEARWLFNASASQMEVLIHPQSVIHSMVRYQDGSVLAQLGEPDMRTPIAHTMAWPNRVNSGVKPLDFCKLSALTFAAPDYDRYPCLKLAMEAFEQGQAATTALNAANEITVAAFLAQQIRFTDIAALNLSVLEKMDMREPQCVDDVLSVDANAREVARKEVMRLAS
- assay_explanation: Inhibition of recombinant Escherichia coli Dxr expressed in Escherichia coli BL21 CodonPlus (DE3)-RIL cells using DOXP as substrate assessed as NADPH oxidation at 100 uM preincubated for 5 mins with NADPH followed by substrate addition by spectrophotometric analysis
The source made the active and inactive calls. The calls are words filed in the database; no cut-off is given here.
measure_name: inhibition

[[record]]
molecule = "CN(O)C(=O)CC(CP(=O)(O)O)c1ccccc1 (stereo unspecified)"
test_result = "inactive"

[[record]]
molecule = "CN(O)C(=O)CC(CP(=O)(O)O)c1ccc(Cl)cc1 (stereo unspecified)"
test_result = "inactive"

[[record]]
molecule = "COc1ccc(C(CC(=O)N(C)O)CP(=O)(O)O)cc1 (stereo unspecified)"
test_result = "inactive"

[[record]]
molecule = "CN(O)C(=O)CC(CP(=O)(O)O)c1ccc(Cl)c(Cl)c1 (stereo unspecified)"
test_result = "inactive"

[[record]]
molecule = "Cc1ccc(C(CC(=O)N(C)O)CP(=O)(O)O)cc1 (stereo unspecified)"
test_result = "inactive"


====

Each entry below lists one item and its recorded MIC50 value.
- Test system: Plasmodium falciparum
- assay_explanation: Schizontocidal activity against Plasmodium falciparum K1 infected in human RBC after 72 hrs by Malstat reagent-based spectrophotometric analysis
- Assay type: functional
- setup_conditions: K1, 72 h
measure_name: MIC50

[[record]]
molecule = "Cc1ccc(C(CC(=O)N(C)O)CP(=O)(O)O)cc1 (centres undefined)"
target = "Plasmodium falciparum"
measure_name = "MIC50"
test_result = "> 64 µM"

[[record]]
molecule = "CN(O)C(=O)CC(CCCCc1ccccc1)CP(=O)(O)O (centres undefined)"
target = "Plasmodium falciparum"
measure_name = "MIC50"
test_result = "< 0.25 µM"

[[record]]
molecule = "CN(O)C(=O)CC(CP(=O)(O)O)c1ccc(Cl)cc1 (centres undefined)"
target = "Plasmodium falciparum"
measure_name = "MIC50"
test_result = "> 64 µM"

[[record]]
molecule = "CN(O)C(=O)CC(CP(=O)(O)O)c1ccc(Cl)c(Cl)c1 (centres undefined)"
target = "Plasmodium falciparum"
measure_name = "MIC50"
test_result = "> 64 µM"


====

- Test system: Escherichia coli
- assay_explanation: Antibacterial activity against Escherichia coli ATCC 25922 by two-fold broth microdilution method
- Assay type: functional
measure_name: MIC50

[[record]]
molecule = "CN(O)C(=O)CC(CP(=O)(O)O)c1ccccc1 (stereo unspecified)"
measure_name = "MIC50"
test_result = "> 250 µM"

[[record]]
molecule = "CN(O)C(=O)CCCP(=O)(O)O"
measure_name = "MIC50"
test_result = "15.6 µM"

[[record]]
molecule = "CN(O)C(=O)CC(CP(=O)(O)O)c1ccc(Cl)cc1 (stereo unspecified)"
measure_name = "MIC50"
test_result = "> 250 µM"

[[record]]
molecule = "CN(O)C(=O)CC(CCCCc1ccccc1)CP(=O)(O)O (stereo unspecified)"
measure_name = "MIC50"
test_result = "> 250 µM"

[[record]]
molecule = "CN(O)C(=O)CC(CP(=O)(O)O)c1ccc(Cl)c(Cl)c1 (stereo unspecified)"
measure_name = "MIC50"
test_result = "> 250 µM"

[[record]]
molecule = "CC(=O)N(O)CCCP(=O)(O)O"
measure_name = "MIC50"
test_result = "62.5 µM"

[[record]]
molecule = "Cc1ccc(C(CC(=O)N(C)O)CP(=O)(O)O)cc1 (stereo unspecified)"
measure_name = "MIC50"
test_result = "> 250 µM"

[[record]]
molecule = "CN(O)C(=O)CC(CCc1ccccc1)CP(=O)(O)O (stereo unspecified)"
measure_name = "MIC50"
test_result = "> 250 µM"

[[record]]
molecule = "CN(O)C(=O)CC(CCCc1ccccc1)CP(=O)(O)O (stereo unspecified)"
measure_name = "MIC50"
test_result = "> 250 µM"

[[record]]
molecule = "O=CN(O)CCCP(=O)(O)O"
measure_name = "MIC50"
test_result = "250 µM"

[[record]]
molecule = "COc1ccc(C(CC(=O)N(C)O)CP(=O)(O)O)cc1 (stereo unspecified)"
measure_name = "MIC50"
test_result = "> 250 µM"


Every entry's value here was drawn from ChEMBL document CHEMBL3421566.
